# Subject Of Test: human CYP2D6 (CYP2D6-incorporated proteoliposomes) (Homo sapiens)
# Run Description: MDMA utilization and DHMA formation in CYP2D6-PLS
# Assay type: in vitro ADME
Measured Attribute: Kd (µM)

{"Molecule": "CNC(C)Cc1ccc2c(c1)OCO2 (stereo not shown)", "Value Unit": "µM", "Measurement": 49.5}

* * *

# Subject Of Test: human CYP2D6 (Homo sapiens)
# Run Description: Substrate-induced spin shift titration, purified CYP2D6 in solution
pKd: −log10 of the molar value.

{"Compound": "COc1ccc2c(c1)[C@]13CCCC[C@@H]1[C@H](C2)N(C)CC3 [DXM, Dextromethorphan]", "pKd": 4.34}
{"Compound": "CNC(C)Cc1ccc2c(c1)OCO2 (centres unmarked) [MDMA, 3,4-methylenedioxymethamphetamine]", "pKd": 4.66}

* * *

# Subject Of Test: human CYP2D6 (CYP2D6-incorporated proteoliposomes) (Homo sapiens, UniProt P10635)
# Run Description: MDMA-dependent time-dependent inhibition
Measured Attribute: Kd (µM)

{"Compound": "CNC(C)Cc1ccc2c(c1)OCO2 (stereo not shown)", "Value Unit": "µM", "Measurement": 23.9}
